Origin of measurements: patent US20230313203A1

- target-under-test: SARS-CoV-2 spike S1 (Wuhan), His-tagged (SARS-CoV-2)
- procedure-text: filter

biopolymer-sequence | Kd
AAAAGGTAGTGCTGAATTCGCGAGCCCGCAUGAAAAGGGGAGAUAAAAAAUAUCUGUCGAUUCGCUAUCCAGUUGGCCU [FANA-R8-9] | 14.7 nM

---

- target-under-test: SARS-CoV-2 spike S1 (Wuhan), His-tagged (SARS-CoV-2)
- procedure-text: filter
- condition-label: first 20 nt DNA, rest FANA (SEQ ID NO 1)
pKd: −log10 of the molar value.
metric: pKd

biopolymer-sequence | metric | recorded-result
AAAAGGTAGTGCTGAATTCGUCGAACUAAACCGAAUUGAUGGCAUAAAAAGCAUGUUUAGUUCGCUAUCCAGUUGGCCU [FANA-R8-5] | pKd | 7.78

---

- target-under-test: SARS-CoV-2 spike receptor binding domain (Wuhan) (SARS-CoV-2) (UniProt P0DTC2)
- procedure-text: filter
- condition-label: first 20 nt DNA, rest FANA (SEQ ID NO 1)
pKd: −log10 of the molar value.
metric: pKd

biopolymer-sequence | target-under-test | metric | recorded-result
AAAAGGTAGTGCTGAATTCGUCGAACUAAACCGAAUUGAUGGCAUAAAAAGCAUGUUUAGUUCGCUAUCCAGUUGGCCU [FANA-R8-5] | SARS-CoV-2 spike receptor binding domain (Wuhan) (SARS-CoV-2) (UniProt P0DTC2) | pKd | 7.58

---

- target-under-test: SARS-CoV-2 spike S1 (Wuhan), untagged (SARS-CoV-2)
- procedure-text: filter
metric: Kd

biopolymer-sequence | recorded-result
AAAAGGTAGTGCTGAATTCGCGAGCCCGCAUGAAAAGGGGAGAUAAAAAAUAUCUGUCGAUUCGCUAUCCAGUUGGCCU [FANA-R8-9] | 29.6 nM

---

- target-under-test: SARS-CoV-2 spike S1 (Wuhan), His-tagged (SARS-CoV-2) (UniProt P0DTC2)
- procedure-text: filter
- condition-label: first 20 nt DNA, rest FANA (SEQ ID NO 3)

biopolymer-sequence | Kd
AAAAGGTAGTGCTGAATTCGUCGAACUAAUCCGAAUUGAUGGCAUAAAAAGCAUGUUUAGUUCGCUAUCCAGUUGGCCU [FANA-R8-17] | 19.1 nM

---

- target-under-test: SARS-CoV-2 spike S1 (Wuhan), His-tagged (SARS-CoV-2)
- procedure-text: filter
- condition-label: first 20 nt DNA, rest FANA (SEQ ID NO 17)
pKd: −log10 of the molar value.

biopolymer-sequence | pKd
AAAAGGTAGTGCTGAATTCGCGAGCCCGCAUGAAAAGGGGAGAUAUGCAAUAUCUGUCGAUUCGCUAUCCAGUUGGCCU [FANA-R8-22] | 7.88

---

- target-under-test: SARS-CoV-2 spike receptor binding domain (Wuhan) (SARS-CoV-2)
- procedure-text: filter
- condition-label: first 20 nt DNA, rest FANA (T in random region is faU)
pKd: −log10 of the molar value.

biopolymer-sequence | pKd
AAAAGGTAGTGCTGAATTCGGTCGCGATTAACATTAAACCGCATAAAAAGGGTGGCCGGAUUCGCUAUCCAGUUGGCCU [FANA-R8-3] | 7.17
AAAAGGTAGTGCTGAATTCGATTCTCGATTGATGGCATAAAAAGCATAGAATCGCAAGCAUUCGCUAUCCAGUUGGCCU [FANA-R8-7] | 7.20
AAAAGGTAGTGCTGAATTCGGGAGCTCGAACAGATGGGATAAAAAGCATAGCTCACCAATUUCGCUAUCCAGUUGGCCU [FANA-R8-15] | 7.36
